The measured values listed here are drawn from patent US20230365705A1.

# TGT: T1, Human CD93 on cells (human CD93 expressing CHO cells; HUVEC, U937 and KG1a cells) (human, UniProt Q9NPY3 22-652)
# T1 construct: whole, on cells; also called hCD93 expressing CHO cells; hCD93 CHO cells
# T1 sequence (looked up): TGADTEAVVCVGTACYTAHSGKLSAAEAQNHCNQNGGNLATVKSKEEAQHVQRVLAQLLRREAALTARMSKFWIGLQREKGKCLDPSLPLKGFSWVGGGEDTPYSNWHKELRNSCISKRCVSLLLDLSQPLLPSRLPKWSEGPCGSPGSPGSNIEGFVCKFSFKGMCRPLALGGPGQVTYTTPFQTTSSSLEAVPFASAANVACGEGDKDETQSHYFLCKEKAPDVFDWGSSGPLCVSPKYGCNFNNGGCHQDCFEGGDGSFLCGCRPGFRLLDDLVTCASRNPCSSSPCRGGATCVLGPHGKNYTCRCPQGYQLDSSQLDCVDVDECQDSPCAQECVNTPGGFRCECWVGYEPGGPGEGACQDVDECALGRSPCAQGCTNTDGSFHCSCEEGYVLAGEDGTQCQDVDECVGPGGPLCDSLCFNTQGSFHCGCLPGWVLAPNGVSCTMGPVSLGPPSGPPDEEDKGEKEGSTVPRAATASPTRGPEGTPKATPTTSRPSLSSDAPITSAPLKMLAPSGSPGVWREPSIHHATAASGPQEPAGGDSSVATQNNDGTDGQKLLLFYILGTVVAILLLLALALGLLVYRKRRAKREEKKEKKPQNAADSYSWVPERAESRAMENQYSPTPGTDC
# ASSAY DETAILS: flow cytometry, CD93 expressing CHO cells, antibody 10 ug/ml, FITC-A

{"BINDER": "12H4 (antibody, V domains shown, Mouse hybridoma monoclonal antibody) VH: EVQLQQSGPELVKPGASVKVSCKASGYTFTDYYIHWVKQRPGQGLEWIGEIYPGSDDAYYNEKFKGKATLTADKSSSTAYMQLSSLTSEDSAVYFCTRETTATAYWGQGTLVTVSA VL: QIVLTQSPAIMSASPGEKVTITCSASSSVSLIYWFQQKPGTSPKLWIYSTSNLASGVPARFSGSGSGTSYSLTISRMEAEDAATYYCQQRSGYPPTFGGGTKLEIK", "binding result": "binds"}
{"BINDER": "5H9 (antibody, IgG2a, V domains shown, also called 5H9 mIgG2a) VH: QVQLQQSGPDLVKPGASVKISCKASGYAFSTYWMNWVKQRPGKGLEWIGRIFPGDGDANYNGKFKGKATLTADKSSSTAYMQLSSLTSEDSAVYFCTRTGAAYDFDPFPYWGQGTLVTVSA VL: DIVMTQAAFSNPVTLGTSASISCSSSKSLLHSNGVTYLYWYLQRPGQSPQLLIYRMSNLASGVPDRFSGSGSGTDFTLRISRVEAEDVGIYYCAQMLERPFTFGSGTKLEIK", "binding result": "binds"}
{"BINDER": "20C7 (antibody, V domains shown, Mouse hybridoma monoclonal antibody) VH: EVQLQQSGPELVNPGASVKMSCKASGYTFTAYVMHWVKQKPGQGLEWIGYIFPYNDGTEYNEKFKGKATLTSDKSSSTAYMELSSLTSEDSAVYYCARRTDGNPYTMDYWGQGTSVTVSS VL: DIVMTQSHKFMSTSVGDRVSITCKASQDVSTAVAWYQQKPGQSPKLLIHSASYRYTGVPDRFTGRGSGTDFTFTISSVQAEDLAVYYCQQHYSTPFTFGSGTKLEIK", "binding result": "binds"}
{"BINDER": "19B5 (antibody, V domains shown, Mouse hybridoma monoclonal antibody) VH: DVNLVESGGGLVKLGGSLKLSCAASGFTFSNYYMSWVRQSPEKRLEWVATISNNGDSTYYLDTVKGRFTISRDSAENTLYLQMSSLISEDTAVYYCTRVGTGFTYWGQGTLVTVSA VL: DIVLTQSPATLSVTPGDSVSLSCRASQSINNYLHWYQQRSHESPRLLIKFASQSISDIPSRFSGSGSGTDFTLSINSIETEDFGMYFCQQSNSWPLTFGAGTKLELK", "binding result": "binds"}
